Target: Gcr1 (UniProt P07261)
Sequence: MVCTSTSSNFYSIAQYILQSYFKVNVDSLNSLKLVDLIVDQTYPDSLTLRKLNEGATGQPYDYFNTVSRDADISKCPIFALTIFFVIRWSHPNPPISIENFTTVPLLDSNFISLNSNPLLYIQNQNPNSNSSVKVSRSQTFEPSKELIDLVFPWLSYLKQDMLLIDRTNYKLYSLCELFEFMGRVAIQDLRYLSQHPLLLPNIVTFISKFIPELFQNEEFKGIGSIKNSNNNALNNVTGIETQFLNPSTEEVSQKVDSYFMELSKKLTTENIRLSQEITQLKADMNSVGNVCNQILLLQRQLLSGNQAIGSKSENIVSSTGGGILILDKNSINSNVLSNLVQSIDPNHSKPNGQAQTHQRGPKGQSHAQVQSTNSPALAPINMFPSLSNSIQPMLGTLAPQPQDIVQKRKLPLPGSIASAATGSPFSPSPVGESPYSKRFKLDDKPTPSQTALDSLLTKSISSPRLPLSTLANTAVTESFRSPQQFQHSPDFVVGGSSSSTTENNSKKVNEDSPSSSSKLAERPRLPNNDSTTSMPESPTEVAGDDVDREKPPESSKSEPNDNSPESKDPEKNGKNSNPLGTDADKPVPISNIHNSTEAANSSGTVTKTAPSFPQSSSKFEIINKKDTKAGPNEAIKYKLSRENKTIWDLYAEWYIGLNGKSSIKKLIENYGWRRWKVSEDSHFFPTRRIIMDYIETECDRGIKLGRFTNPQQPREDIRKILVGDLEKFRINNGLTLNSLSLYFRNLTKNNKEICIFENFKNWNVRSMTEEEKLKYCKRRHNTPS
Assay: PBM E-score (8-mer binding enrichment) (E-score (-0.5 to 0.5)); higher = stronger / more preferred TF binding
Conditions: protein concentration: 100 nM; construct: GST-full length
Whole data set: some 33,000 sequences, median “E-score (-0.5 to 0.5)” near -0.011, cut for the highest 2% near 0.28. What follows is part of a selection rich in the highest values, with near analogues and random picks from the rest.
Endpoint Label: PBM E-score

INSERT INTO assay_data (sequence_input, measurement) VALUES
  ('GTCGGCAA', 0.0614),
  ('CGACGTCC', 0.0613),
  ('CCAAGGTC', -0.0561),
  ('ACCGCTTG', -0.0218),
  ('CCCGATGC', -0.124),
  ('GCCCTGGA', -0.0767),
  ('AGATGAGC', -0.102),
  ('TGACTCCA', 0.0388),
  ('ATCGGGAC', 0.0526),
  ('ACGGGGTA', 0.129),
  ('GGGCTCGA', -0.0878),
  ('CAATGGGG', 0.00495),
  ('GGACGTCA', -0.115),
  ('CTCTTTAA', -0.101),
  ('GGCCTCCA', 0.172),
  ('ATCGCCGG', 0.123),
  ('GCACGCCC', -0.122),
  ('CAACGCCC', 0.0625),
  ('GGACGTCC', 0.291),
  ('CGACGCAC', -0.0398),
  ('ACACCTTA', 0.0539),
  ('GCTGGTCA', -0.151);

###

Molecular target: Gcr1 (UniProt P07261)
Sequence: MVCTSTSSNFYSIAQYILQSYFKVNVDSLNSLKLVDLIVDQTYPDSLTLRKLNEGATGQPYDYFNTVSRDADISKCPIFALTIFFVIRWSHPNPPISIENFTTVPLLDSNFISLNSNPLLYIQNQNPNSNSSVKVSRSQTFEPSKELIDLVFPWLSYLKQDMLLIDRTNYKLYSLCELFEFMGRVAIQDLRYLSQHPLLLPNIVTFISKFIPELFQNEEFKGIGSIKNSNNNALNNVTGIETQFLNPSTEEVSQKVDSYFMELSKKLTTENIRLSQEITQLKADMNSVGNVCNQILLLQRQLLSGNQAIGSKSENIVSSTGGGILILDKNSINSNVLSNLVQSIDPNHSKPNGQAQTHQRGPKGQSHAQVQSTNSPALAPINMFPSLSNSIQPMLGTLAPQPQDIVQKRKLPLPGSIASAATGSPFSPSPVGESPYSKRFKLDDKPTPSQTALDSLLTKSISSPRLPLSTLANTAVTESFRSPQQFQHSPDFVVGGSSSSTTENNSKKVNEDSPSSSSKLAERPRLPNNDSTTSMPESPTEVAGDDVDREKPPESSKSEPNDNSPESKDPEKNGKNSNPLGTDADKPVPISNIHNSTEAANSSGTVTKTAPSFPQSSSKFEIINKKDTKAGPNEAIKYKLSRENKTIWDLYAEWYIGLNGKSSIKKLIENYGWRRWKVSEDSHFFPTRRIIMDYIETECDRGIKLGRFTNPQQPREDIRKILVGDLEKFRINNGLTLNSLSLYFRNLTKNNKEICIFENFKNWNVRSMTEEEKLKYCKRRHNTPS
Test: PBM E-score (8-mer binding enrichment) (E-score (-0.5 to 0.5)); higher = stronger / more preferred TF binding
Details: protein concentration: 100 nM; construct: GST-full length
Over roughly 33,000 sequences, “E-score (-0.5 to 0.5)” has its median near -0.011; the highest 2% begin near 0.28. The list comes from a sample in which the highest values are over-represented; it also holds close analogues and randomly drawn sequences.
Examples of sequences with documented PBM E-score follow.
Endpoint Label: PBM E-score

INSERT INTO assay_data (sequence_input, experimental_target, endpoint_label, measurement) VALUES
  ('AGTCCCGG', 'Gcr1 (UniProt P07261)', 'PBM E-score', 0.108),
  ('CAAGAAGA', 'Gcr1 (UniProt P07261)', 'PBM E-score', 0.354),
  ('CCGCATCG', 'Gcr1 (UniProt P07261)', 'PBM E-score', -0.0819),
  ('CGGATACG', 'Gcr1 (UniProt P07261)', 'PBM E-score', 0.0225),
  ('CAATCTCC', 'Gcr1 (UniProt P07261)', 'PBM E-score', 0.0196),
  ('GGGCGCAC', 'Gcr1 (UniProt P07261)', 'PBM E-score', -0.138),
  ('AATGGGAT', 'Gcr1 (UniProt P07261)', 'PBM E-score', 0.28),
  ('CAGCACCA', 'Gcr1 (UniProt P07261)', 'PBM E-score', 0.277),
  ('AGCATAAT', 'Gcr1 (UniProt P07261)', 'PBM E-score', -0.00272),
  ('CCCGGGTA', 'Gcr1 (UniProt P07261)', 'PBM E-score', -0.031),
  ('ATGCCGGA', 'Gcr1 (UniProt P07261)', 'PBM E-score', 0.215),
  ('TCCCTACA', 'Gcr1 (UniProt P07261)', 'PBM E-score', 0.00308),
  ('CCGCACAC', 'Gcr1 (UniProt P07261)', 'PBM E-score', -0.0537),
  ('CGAGAGGA', 'Gcr1 (UniProt P07261)', 'PBM E-score', -0.113),
  ('ACGGGAAG', 'Gcr1 (UniProt P07261)', 'PBM E-score', 0.112),
  ('CTAGACGC', 'Gcr1 (UniProt P07261)', 'PBM E-score', 0.0428),
  ('CGGCGCGC', 'Gcr1 (UniProt P07261)', 'PBM E-score', 0.193),
  ('AATGGGAA', 'Gcr1 (UniProt P07261)', 'PBM E-score', 0.132),
  ('CTGGAATC', 'Gcr1 (UniProt P07261)', 'PBM E-score', 0.407),
  ('GCGCATCC', 'Gcr1 (UniProt P07261)', 'PBM E-score', 0.331),
  ('CTTTGGAA', 'Gcr1 (UniProt P07261)', 'PBM E-score', 0.282),
  ('CATTACAG', 'Gcr1 (UniProt P07261)', 'PBM E-score', -0.0702),
  ('CCACAAAC', 'Gcr1 (UniProt P07261)', 'PBM E-score', 0.19),
  ('ATAGACGA', 'Gcr1 (UniProt P07261)', 'PBM E-score', 0.248),
  ('CAGATAAC', 'Gcr1 (UniProt P07261)', 'PBM E-score', -0.13),
  ('TAGCACCA', 'Gcr1 (UniProt P07261)', 'PBM E-score', 0.323),
  ('CAGCTGGG', 'Gcr1 (UniProt P07261)', 'PBM E-score', -0.0114),
  ('AAGACTCC', 'Gcr1 (UniProt P07261)', 'PBM E-score', 0.0934),
  ('CGCTAGGC', 'Gcr1 (UniProt P07261)', 'PBM E-score', -0.216),
  ('ACTGGAAC', 'Gcr1 (UniProt P07261)', 'PBM E-score', 0.301),
  ('CCAAAGGC', 'Gcr1 (UniProt P07261)', 'PBM E-score', -0.185),
  ('ATGGAATA', 'Gcr1 (UniProt P07261)', 'PBM E-score', 0.0994),
  ('GGGCGCCC', 'Gcr1 (UniProt P07261)', 'PBM E-score', 0.459),
  ('CGCTCCGA', 'Gcr1 (UniProt P07261)', 'PBM E-score', -0.0796),
  ('GGACGCAC', 'Gcr1 (UniProt P07261)', 'PBM E-score', 0.127),
  ('TAAGAAGA', 'Gcr1 (UniProt P07261)', 'PBM E-score', 0.243),
  ('CCGCATCA', 'Gcr1 (UniProt P07261)', 'PBM E-score', 0.103),
  ('CGGCGCCG', 'Gcr1 (UniProt P07261)', 'PBM E-score', 0.113),
  ('GAGCGCCC', 'Gcr1 (UniProt P07261)', 'PBM E-score', 0.234),
  ('AAATCCAT', 'Gcr1 (UniProt P07261)', 'PBM E-score', 0.129),
  ('TGGCTGAA', 'Gcr1 (UniProt P07261)', 'PBM E-score', 0.0392),
  ('TAAAGAAA', 'Gcr1 (UniProt P07261)', 'PBM E-score', 0.162),
  ('ACTGGAAG', 'Gcr1 (UniProt P07261)', 'PBM E-score', 0.463),
  ('ATAGACGC', 'Gcr1 (UniProt P07261)', 'PBM E-score', 0.377),
  ('CGGCACCG', 'Gcr1 (UniProt P07261)', 'PBM E-score', 0.143),
  ('ATGGAATC', 'Gcr1 (UniProt P07261)', 'PBM E-score', 0.29);
